Values from patent US11466005B2

Target: BRD4(BD1) (Homo sapiens (Human), UniProt O60885)
Assay: BRD4(BD1) biochemical binding assay (HTRF)
Conditions: biotinylated H4 derived acetylated peptide
pIC50: −log10 of the molar value.
assay-endpoint: pIC50

Sample answers from the record:
* CCC(O)(CC)c1nn(C)c2c3ncc(-c4c(C)nnn4C)cc3n(C(c3ccccc3)C3CCOCC3)c12 (stereo not shown) [Compound 19] | 9.10
* Cc1ccccc1C(C1CCOCC1)n1c2cc(-c3c(C)noc3C)cnc2c2c1c(C(C)(C)O)nn2C (stereo not shown) [Compound 9] | 9.00
* Cc1cccnc1C(C1CCOCC1)n1c2cc(-c3c(C)nnn3C)cnc2c2c1c(C(C)(C)O)nn2C (stereo not shown) [Compound 5] | 9.23

I: Cc1nnn(C)c1-c1cnc2c3c(c(C(C)(C)O)nn3C)n(C(CCC(F)(F)F)c3cocn3)c2c1 (stereo not shown) [Compound 10]
II: Cc1nnn(C)c1-c1cnc2c3c(c(C(C)(C)N)nn3C)n(C(c3ccccc3)C3CCOCC3)c2c1 (stereo not shown) [Compound 18]
III: Cc1nnn(C)c1-c1cnc2c3[nH]nc(C(C)(C)O)c3n([C@H](c3ncccc3F)C3CCOCC3)c2c1 [Compound 13]
// query Rank by pIC50 (largest to smallest). Rank the items, then write their labels in that order.
// result III, II, I
(III: 9.40, II: 8.96, I: 8.66)

1: Cc1nnn(C)c1-c1cnc2c3c(c(C(N)=O)nn3C)n(C(c3ccccc3)C3CCOCC3)c2c1 (stereo not shown) [Compound 16]
2: Cc1nnn(C)c1-c1cnc2c3c(c(C(C)(C)O)nn3C)n([C@H](c3ccccc3)C3CCOCC3)c2c1 [Compound 6]
// query # query: argmin of pIC50 over 1 and 2 Answer = label.
// result 2
(2: 9.31, 1: 9.52)

a: COc1cccnc1C(C1CCOCC1)n1c2cc(-c3c(C)nnn3C)cnc2c2c1c(C(C)(C)O)nn2C (stereo not shown) [Compound 26]
b: Cc1noc(C)c1-c1cnc2c3c(c(C(C)(C)O)nn3C)n([C@@H](c3ncccc3F)C3CCOCC3)c2c1 [Compound 31]
// query For the two items a and b , which reports the higher pIC50 value? Answer = label.
// result a

###

Target: BRD4(BD1) (Homo sapiens (Human), UniProt O60885)
Experiment: BRD4(BD1) biochemical binding assay (HTRF)
Details: biotinylated H4 derived acetylated peptide
pIC50: −log10 of the molar value.
assay-endpoint: pIC50

* Cc1nnn(C)c1-c1cnc2c3c(c(C(C)(C)O)nn3C)n(C(CCC(F)(F)F)c3ncccc3F)c2c1 (stereo not drawn) | 9.24
* Cc1nc(C(C2CCOCC2)n2c3cc(-c4c(C)nnn4C)cnc3c3c2c(C(C)(C)O)nn3C)co1 (stereo not drawn) | 8.80

1: Cc1nnn(C)c1-c1cnc2c3c(c(CN4CCOCC4)nn3C)n(C(c3ccccc3)C3CCOCC3)c2c1 (stereo not drawn)
2: Cc1nnn(C)c1-c1cnc2c3c(c(C(C)(C)O)nn3C)n(C(CCC(F)(F)F)c3ccccc3)c2c1 (stereo not drawn)
3: Cc1cccnc1C(CCC(F)(F)F)n1c2cc(-c3c(C)nnn3C)cnc2c2c1c(C(C)(C)O)nn2C (stereo not drawn)
// query Arrange items by their pIC50 values in increasing order. Rank the items, then write their labels in that order.
// result 3, 2, 1
(3: 8.89, 2: 9.18, 1: 9.47)

###

Target: BRD4(BD1) (Homo sapiens (Human))
Assay: BRD4(BD1) biochemical binding assay (HTRF)
Conditions: biotinylated H4 derived acetylated peptide
Experimental: 1. BRD4(BD1) Binding Assays The BRD4(BD1) biochemical binding assay was performed by Sundia MediTech Co. Ltd. in 384-well white plate (OptiPlate-384, PerkinElmer) using HTRF technology. Briefly, 20 nL of compounds were transferred to the 384-well plate by Echo® 550 liquid handler (Labcyte, USA), then 5 μL of BRD4(BD1) (Reaction Biology Company, RD-11-157) solution or the assay buffer was added to each well. […]
pIC50: −log10 of the molar value.
assay-endpoint: pIC50

* Cc1nnn(C)c1-c1cnc2c3c(c(CS(C)(=O)=O)nn3C)n(C(c3ccccc3)C3CCOCC3)c2c1 (stereo not shown) | 8.33
* Cc1cc(F)cc(C)c1C(C)n1c2cc(-c3c(C)nnn3C)cnc2c2c1c(C(C)(C)O)nn2C (stereo not shown) | 7.77
* CNC(=O)c1nn(C)c2c3ncc(-c4c(C)nnn4C)cc3n(C(c3ccccc3)C3CCOCC3)c12 (stereo not shown) | 9.26

P: Cc1noc(C)c1-c1cnc2c3c(c(C(C)(C)O)nn3C)n([C@H](c3ccccc3)C3CCOCC3)c2c1
Q: Cc1nnn(C)c1-c1cnc2c3c(c(C(C)(C)O)nn3C)n([C@H](c3ncccc3F)C3CCOCC3)c2c1
R: CC(=O)Nc1nn(C)c2c3ncc(-c4c(C)nnn4C)cc3n([C@H](c3ccccc3)C3CCOCC3)c12
S: Cc1nnn(C)c1-c1cnc2c3c(c(C(C)(C)O)nn3C)n([C@@H](c3ncccc3F)C3CCOCC3)c2c1
T: Cc1cccnc1C(C1CCOCC1)n1c2cc(-c3c(C)noc3C)cnc2c2c1c(C(C)(C)O)nn2C (stereo not shown)
// query Rank by pIC50 (largest to smallest). Rank the items, then write their labels in that order.
// result P, Q, R, S, T

I: Cc1nnn(C)c1-c1cnc2c3c(c(C(=O)N(C)C)nn3C)n(C(c3ccccc3)C3CCOCC3)c2c1 (stereo not shown)
II: Cc1noc(C)c1-c1cnc2c3c(c(C(C)(C)O)nn3C)n([C@H](c3ncccc3F)C3CCOCC3)c2c1
// query # query: argmin of pIC50 over I and II Answer = label.
// result I
(I: 9.21, II: 9.46)
